measurement-target: SF3b complexes (Homo sapiens, UniProt O75533+Q7RTV0)
Construct: endogenous in cells; host or cells: Nuclear extracts; A HeLa S3 extract preparation is described for the in vitro splicing assay
assay-comment: Scintillation proximity assay (SPA) with [3H]-labelled pladienolide probe
Assay type: binding
measurement-setup: SF3B1 (WT); geometric mean; read-out: SPA-ATS GMean IC50 (nM) SF3B1 (WT)
Quick list: IC50 per entry.

>  <compound>
C/C(=C\c1cc(F)cc(N(C)C2CCN(C(=O)NC(C)C)CC2)c1)[C@H]1OC(=O)C[C@H](O)CC[C@H](C)[C@@H](OC(=O)N2CCN(C)CC2)/C=C/[C@@H]1C

>  <IC50 / nM>
3.47

$$$$
>  <compound>
C/C(=C\c1cc(F)cc(N2CCN(C(=O)Cn3cccn3)CC2)c1)[C@H]1OC(=O)C[C@H](O)CC[C@H](C)[C@@H](OC(=O)N2CCN(CCO)CC2)/C=C/[C@@H]1C

>  <IC50 / nM>
3.16

$$$$
>  <compound>
C/C(=C\c1cc(F)c2cn[nH]c2c1)[C@H]1OC(=O)C[C@H](O)CC[C@H](C)[C@@H](OC(=O)N2CCN(C)CC2)/C=C/[C@@H]1C

>  <IC50 / nM>
2.75

$$$$
>  <compound>
C/C(=C\c1cc(F)cc(N2CCN(S(=O)(=O)c3ccc4ccn(C)c4c3)CC2)c1)[C@H]1OC(=O)C[C@H](O)CC[C@H](C)[C@@H](OC(=O)N2CCN(C)CC2)/C=C/[C@@H]1C

>  <IC50 / nM>
144

$$$$
>  <compound>
C/C(=C\c1cc(F)c2nnn([C@H](C)CO)c2c1)[C@H]1OC(=O)C[C@H](O)CC[C@H](C)[C@@H](OC(=O)N2CCN(C)CC2)/C=C/[C@@H]1C

>  <IC50 / nM>
1.32

$$$$
>  <compound>
C/C(=C\c1cc(F)cc(N(C)C2CCN(S(C)(=O)=O)CC2)c1)[C@H]1OC(=O)C[C@H](O)CC[C@H](C)[C@@H](OC(=O)N2CCN(C)CC2)/C=C/[C@@H]1C

>  <IC50 / nM>
3.14

$$$$
>  <compound>
C/C(=C\c1cc(F)cc(N2CCOCC2)c1)[C@H]1OC(=O)C[C@@H](O)CC[C@@](C)(O)[C@@H](OC(=O)N2CCC(N3CCCCC3)CC2)/C=C/[C@@H]1C

>  <IC50 / nM>
12.3

$$$$
>  <compound>
CCC(=O)N1CCC(N(C)c2cc(F)cc(/C=C(\C)[C@H]3OC(=O)C[C@H](O)CC[C@H](C)[C@@H](OC(=O)N4CCN(C)CC4)/C=C/[C@@H]3C)c2)CC1

>  <IC50 / nM>
2.16

$$$$
>  <compound>
C/C(=C\c1cc(F)cc(N2CCN(S(=O)(=O)c3cnn(C)c3)CC2)c1)[C@H]1OC(=O)C[C@H](O)CC[C@H](C)[C@@H](OC(=O)N2CCN(C)CC2)/C=C/[C@@H]1C

>  <IC50 / nM>
28

$$$$
>  <compound>
C/C(=C\c1cccc(S(=O)(=O)N2CC[C@@H](O)C2)c1)[C@H]1OC(=O)C[C@H](O)CC[C@H](C)[C@@H](OC(=O)N2CCN(C)CC2)/C=C/[C@@H]1C

>  <IC50 / nM>
8.99

$$$$
>  <compound>
C/C(=C\c1cc(F)cc(N2CCN(C(=O)Cn3cccn3)CC2)c1)[C@H]1OC(=O)C[C@H](O)CC[C@H](C)[C@@H](OC(=O)N2CC[C@H](N(C)C)C2)/C=C/[C@@H]1C

>  <IC50 / nM>
3.96

$$$$
>  <compound>
C/C(=C\c1cc(F)cc(N2CCN(C(=O)Cn3cccn3)CC2)c1)[C@H]1OC(=O)C[C@H](O)CC[C@H](C)[C@@H](OC(=O)N2CCNCC2)/C=C/[C@@H]1C

>  <IC50 / nM>
5.56

$$$$
>  <compound>
C/C(=C\c1cnn(C2CCN(C)CC2)c1)[C@H]1OC(=O)C[C@H](O)CC[C@H](C)[C@@H](OC(=O)N2CCN(C)CC2)/C=C/[C@@H]1C

>  <IC50 / nM>
146

$$$$
>  <compound>
C/C(=C\c1cc(F)c2nnn(C3CCOCC3)c2c1)[C@H]1OC(=O)C[C@H](O)CC[C@H](C)[C@@H](OC(=O)N2CCN(C)CC2)/C=C/[C@@H]1C

>  <IC50 / nM>
1.73

$$$$
>  <compound>
C/C(=C\c1cc(F)cc(N2CCOC[C@H]2C)c1)[C@H]1OC(=O)C[C@H](O)CC[C@H](C)[C@@H](OC(=O)N2CCN(C)CC2)/C=C/[C@@H]1C

>  <IC50 / nM>
2.15

$$$$
>  <compound>
C/C(=C\c1ccc(S(=O)(=O)NC2CCCC2)cc1F)[C@H]1OC(=O)C[C@H](O)CC[C@H](C)[C@@H](OC(=O)N2CCN(C)CC2)/C=C/[C@@H]1C

>  <IC50 / nM>
9.16

$$$$

----------
System: Panc 05.04 cells (SF3b K700E mutant)
assay-comment: Cell proliferation and viability, CellTiter-Glo, 72 hours
Type: cell-based
measurement-setup: Panc 05.04, 72 h, read-out: CTGlo-ATS GMean GI50 (nM) 72 h PANC0504.1, PANC0504.1 cells, 72 h; geometric mean
Values of GI50 strictly less than 6 nM map to 1.0, and values of at least 6 nM map to 0.0.

>  <compound>
C/C(=C\c1cccc(N2CCCS2(=O)=O)c1)[C@H]1OC(=O)C[C@H](O)CC[C@H](C)[C@@H](OC(=O)N2CCN(C)CC2)/C=C/[C@@H]1C

>  <label>
0.0

$$$$
>  <compound>
C/C(=C\c1cc(F)cc(N2CCC[C@H]2CO)c1)[C@H]1OC(=O)C[C@H](O)CC[C@H](C)[C@@H](OC(=O)N2CCN(C)CC2)/C=C/[C@@H]1C

>  <label>
0.0

$$$$
>  <compound>
C/C(=C\c1cnn(C)c1)[C@H]1OC(=O)C[C@H](O)CC[C@H](C)[C@@H](OC(=O)N2CCN(C)CC2)/C=C/[C@@H]1C

>  <label>
0.0

$$$$
>  <compound>
C/C(=C\c1cc(F)cc(N2CCOCC2)c1)[C@H]1OC(=O)C[C@H](O)CC[C@H](C)[C@@H](OC(=O)N2CCN(C)CC2)/C=C/[C@@H]1C

>  <label>
1.0

$$$$
>  <compound>
C/C(=C\c1cc(F)cc(N2CCN(C(=O)C3CCCCC3)CC2)c1)[C@H]1OC(=O)C[C@H](O)CC[C@H](C)[C@@H](OC(=O)N2CCN(C)CC2)/C=C/[C@@H]1C

>  <label>
0.0

$$$$
>  <compound>
C/C(=C\c1cc(F)cc(N2CCC[C@@H]2CO)c1)[C@H]1OC(=O)C[C@H](O)CC[C@H](C)[C@@H](OC(=O)N2CCN(C)CC2)/C=C/[C@@H]1C

>  <label>
0.0

$$$$

----------
Recorded measurements of IC50, one per entry
measurement-target: SF3b complexes (Homo sapiens, UniProt O75533+Q7RTV0)
Construct: endogenous in cells; host or cells: Nuclear extracts; A HeLa S3 extract preparation is described for the in vitro splicing assay
assay-comment: Scintillation proximity assay (SPA) with [3H]-labelled pladienolide probe
Format: binding
measurement-setup: SF3B1 (WT); geometric mean; read-out: SPA-ATS GMean IC50 (nM) SF3B1 (WT)

>  <compound>
C/C(=C\c1cccc(S(=O)(=O)N2CCC2)c1)[C@H]1OC(=O)C[C@H](O)CC[C@H](C)[C@@H](OC(=O)N2CCN(C)CC2)/C=C/[C@@H]1C

>  <unit-annotation>
nM

>  <IC50>
7.82

$$$$
>  <compound>
C/C(=C\c1cc(F)cc(N2CCN(C(=O)CC3CC3)CC2)c1)[C@H]1OC(=O)C[C@H](O)CC[C@H](C)[C@@H](OC(=O)N2CCN(C)CC2)/C=C/[C@@H]1C

>  <unit-annotation>
nM

>  <IC50>
2.99

$$$$
>  <compound>
C/C(=C\c1cc(F)cc(N2CCOCC2)c1)[C@H]1OC(=O)C[C@H](O)CC[C@H](C)[C@@H](OC(=O)N2CCN(CC(F)(F)F)CC2)/C=C/[C@@H]1C

>  <unit-annotation>
nM

>  <IC50>
80

$$$$
>  <compound>
CC[C@H](O)[C@@H](C)C(=O)N1CCN(c2cc(F)cc(/C=C(\C)[C@H]3OC(=O)C[C@H](O)CC[C@H](C)[C@@H](OC(=O)N4CCN(C)CC4)/C=C/[C@@H]3C)c2)CC1

>  <unit-annotation>
nM

>  <IC50>
4.66

$$$$
>  <compound>
C/C(=C\c1cc(N2CCOCC2)ccc1F)[C@H]1OC(=O)C[C@H](O)CC[C@H](C)[C@@H](OC(=O)N2CCC(N3CCCCC3)CC2)/C=C/[C@@H]1C

>  <unit-annotation>
nM

>  <IC50>
9.49

$$$$
